The entries below come with measured Kd values attached.
TARGET: purified recombinant human alpha synuclein fibrils (human, UniProt P37840 1-140)
PROTOCOL NOTES: SPR, Biacore T200, as in Example 3; Fab injected;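 note: ligands amine-coupled on CM5 chip flow cells, HBS-EP+ running buffer, kinetic data fitted with 1:1 model allowing local bulk contribution and global Rmax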
Provide only the numeric value, understood in nM.

6470 rabbit Fab with heavy chain mutation N99R (Fab, V domains shown) VH: QSVEESGGRLVTPGTPLTLTCTVSGIDLSSHDMYWVRQAPGKGLEYIGAIYASGSTYYASWAKGRFTISKTSTTVDLKMTSLTTEDTATYFCARIHYGRSGGLWGQGTLVTVSS VL: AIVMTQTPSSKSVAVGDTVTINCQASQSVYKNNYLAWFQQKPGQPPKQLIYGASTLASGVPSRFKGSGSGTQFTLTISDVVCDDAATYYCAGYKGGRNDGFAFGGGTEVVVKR	15.3
6470 rabbit Fab with light chain mutation N33R (Fab, V domains shown) VH: QSVEESGGRLVTPGTPLTLTCTVSGIDLSSHDMYWVRQAPGKGLEYIGAIYASGSTYYASWAKGRFTISKTSTTVDLKMTSLTTEDTATYFCARIHYGNSGGLWGQGTLVTVSS VL: AIVMTQTPSSKSVAVGDTVTINCQASQSVYKNRYLAWFQQKPGQPPKQLIYGASTLASGVPSRFKGSGSGTQFTLTISDVVCDDAATYYCAGYKGGRNDGFAFGGGTEVVVKR	2.9
6470 rabbit Fab with heavy chain mutation N99W (Fab, V domains shown) VH: QSVEESGGRLVTPGTPLTLTCTVSGIDLSSHDMYWVRQAPGKGLEYIGAIYASGSTYYASWAKGRFTISKTSTTVDLKMTSLTTEDTATYFCARIHYGWSGGLWGQGTLVTVSS VL: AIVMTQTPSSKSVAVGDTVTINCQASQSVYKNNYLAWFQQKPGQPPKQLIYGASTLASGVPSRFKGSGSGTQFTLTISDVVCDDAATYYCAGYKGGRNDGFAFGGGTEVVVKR	25.3
6470 rabbit Fab with light chain mutation Y30W (Fab, V domains shown) VH: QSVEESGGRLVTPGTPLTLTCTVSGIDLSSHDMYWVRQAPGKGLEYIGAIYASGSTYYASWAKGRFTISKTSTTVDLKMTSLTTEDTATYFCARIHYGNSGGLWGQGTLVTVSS VL: AIVMTQTPSSKSVAVGDTVTINCQASQSVWKNNYLAWFQQKPGQPPKQLIYGASTLASGVPSRFKGSGSGTQFTLTISDVVCDDAATYYCAGYKGGRNDGFAFGGGTEVVVKR	18.8

# ---- query binder ----
Form field Kd, entry 6470 rabbit Fab with heavy chain mutation N99H (Fab, V domains shown) VH: QSVEESGGRLVTPGTPLTLTCTVSGIDLSSHDMYWVRQAPGKGLEYIGAIYASGSTYYASWAKGRFTISKTSTTVDLKMTSLTTEDTATYFCARIHYGHSGGLWGQGTLVTVSS VL: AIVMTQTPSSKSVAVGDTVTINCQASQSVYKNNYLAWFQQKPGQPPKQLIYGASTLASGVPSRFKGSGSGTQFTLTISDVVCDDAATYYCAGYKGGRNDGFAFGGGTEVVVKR : 0.4
